- Subject of test: neurolysin (Homo sapiens, UniProt Q9BYT8)
- Sequence (Q9BYT8 38-704): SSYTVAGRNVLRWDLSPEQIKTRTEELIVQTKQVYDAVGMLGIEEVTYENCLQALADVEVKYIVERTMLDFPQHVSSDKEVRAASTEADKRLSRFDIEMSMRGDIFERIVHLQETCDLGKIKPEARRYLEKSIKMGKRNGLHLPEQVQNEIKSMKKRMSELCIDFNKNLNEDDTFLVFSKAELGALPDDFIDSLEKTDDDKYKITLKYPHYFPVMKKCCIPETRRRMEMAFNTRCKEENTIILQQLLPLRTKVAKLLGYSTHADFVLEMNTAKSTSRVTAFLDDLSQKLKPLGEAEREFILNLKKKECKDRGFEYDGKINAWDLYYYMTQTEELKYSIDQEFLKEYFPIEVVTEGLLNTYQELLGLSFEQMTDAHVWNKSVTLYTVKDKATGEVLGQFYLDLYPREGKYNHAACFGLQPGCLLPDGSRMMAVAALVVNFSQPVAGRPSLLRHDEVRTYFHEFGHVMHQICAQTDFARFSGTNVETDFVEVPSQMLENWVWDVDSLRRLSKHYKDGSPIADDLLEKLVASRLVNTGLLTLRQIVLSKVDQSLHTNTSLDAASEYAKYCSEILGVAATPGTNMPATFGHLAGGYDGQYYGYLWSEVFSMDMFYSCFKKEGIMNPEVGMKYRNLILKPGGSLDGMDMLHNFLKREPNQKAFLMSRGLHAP

- Molecule: "CC(=O)NC1=C2SS(=O)(=O)C=C2N(C)C1=O [thiolutin dioxide]"
  IC50 (nM): 600
